// provenance: the supplement of paper PMC10567573

B1: DCTD (parent)
chain: VKGCSMYVALFPCNECAKLIIQAG

- Variants of: B1
- protocol.notes: protein stability index of a GFP-peptide fusion (GPS, HEK-293T) (PSI 1-6); higher = more stable;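 note: lentivirally expressed fusions sorted by FACS into six bins by GFP to DsRed ratio, PSI derived from sequencing read proportions per bin multiplied by bin number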
- test.conditions: c terminus: a fixed tail appended
Exercise: state measured protein stability index for each of the variants provided.
Kindly provide the number alone.

Enquiry: // protein stability index lookup, key: VHGCSMYVALFPCNECAKLIIQAG [K2H]
Return: 2.42

Enquiry: Using the record for VKGCSMYVALFPCNNCAKLIIQAG [E15N] , report its protein stability index.
Return: 2.17

Enquiry: Any idea what protein stability index was measured for VKGCCMYVALFPCNECAKLIIQAG [S5C] ?
Return: 1.73

Enquiry: protein stability index for VKGCSMYCALFPCNECAKLIIQAG [V8C] ?
Return: 1.9

Enquiry: Data request, read-out protein stability index, for VKGCSMYVALFPENECAKLIIQAG [C13E]
Return: 2.59

Enquiry: Would you mind telling me what protein stability index value was observed for VKGCSMYGALFPCNECAKLIIQAG [V8G] ?
Return: 1.28

Enquiry: // lookup protein stability index for VKGCSMYVALFPCNECAKWIIQAG [L19W]
Return: 2.99

Enquiry: I am curious: what protein stability index value has been reported for VKGCHMYVALFPCNECAKLIIQAG [S5H] ?
Return: 3.63

Enquiry: Recorded protein stability index of VKGCSMYVAQFPCNECAKLIIQAG [L10Q] , please.
Return: 3.35

Enquiry: Data request, read-out protein stability index, for VKGCSTYVALFPCNECAKLIIQAG [M6T]
Return: 2.33

Enquiry: Which protein stability index value is on record for VKGCSMYVCLFPCNECAKLIIQAG [A9C] ?
Return: 2.79
